Test: Stability Study 1: storage stability of a formulation comprising the disodium salt, HPLC
Assay type: physicochemical
Conditions: after 9 months storage; 25° C., heading 30° C.
Listed below: % weight in formulation after 9 months values for each entry.

# compound, % weight in formulation after 9 months (%)
rows = [
    ("CCCOC(=O)c1ccc(O)cc1 [Propylparaben]", 0.033),
    ("COC(=O)c1ccc(O)cc1 [Methylparaben]", 0.16),
    ("CC(C)=CCC/C(C)=C/CC/C(C)=C/C[S+]([O-])C[C@H](NC(=O)CCC(=O)O)C(=O)O (stereo partly shown)", 0.134),
    ("CC(C)=CCC/C(C)=C/CC/C(C)=C/CSC[C@H](NC(=O)CCC(=O)O)C(=O)O", 2.87),
]

* * *

The following compounds are shown together with reported weight percentage of the component, 3 months values.
Test: Stability Study 2 conducted at 5° C.: storage stability of a formulation comprising the disodium salt, HPLC
Assay type: physicochemical
Conditions: 3 months at 5° C.
assay.endpoint: weight percentage of the component, 3 months (weight percentage)

# compound, observed.measurement
records = [
    ("CC(C)=CCC/C(C)=C/CC/C(C)=C/CSC[C@H](NC(=O)CCC(=O)O)C(=O)O", 3.10),
    ("CCCOC(=O)c1ccc(O)cc1", 0.033),
    ("CC(C)=CCC/C(C)=C/CC/C(C)=C/C[S+]([O-])C[C@H](NC(=O)CCC(=O)O)C(=O)O (stereo partly shown)", 0.112),
    ("COC(=O)c1ccc(O)cc1", 0.17),
]

* * *

Test: Stability Study 2 conducted at 5° C.: storage stability of a formulation comprising the disodium salt, HPLC
Type: physicochemical
Conditions: 24 months at 5° C.
# reported weight percentage of the component, 24 months; entries follow
assay.endpoint: weight percentage of the component, 24 months (weight percentage)

# compound, unit.info, observed.measurement
rows = [
    ("CC(C)=CCC/C(C)=C/CC/C(C)=C/C[S+]([O-])C[C@H](NC(=O)CCC(=O)O)C(=O)O (stereo partly shown)", "weight percentage", 0.044),
    ("CCCOC(=O)c1ccc(O)cc1 [Propylparaben]", "weight percentage", 0.030),
    ("CC(C)=CCC/C(C)=C/CC/C(C)=C/CSC[C@H](NC(=O)CCC(=O)O)C(=O)O", "weight percentage", 3.05),
    ("COC(=O)c1ccc(O)cc1 [Methylparaben]", "weight percentage", 0.15),
]

* * *

Experiment: Screening Study (Example 5): sulfoxide formed in API solution with each agent, HPLC
Format: physicochemical
Details: 24 hours exposed to air at room temperature, not protected from light; API stock in argon-sparged methanol
assay.endpoint: (% area sulfoxide for each agent/% area sulfoxide in Blank)

# molecule, observed.measurement
rows = [
    ("CC(C)(C)c1cc(O)ccc1O [Tert-butylhydroquinone (TBHQ), Tert-butylhydroquinone]", 7.38),
    ("O=C1O[C@H]([C@@H](O)CO)C(O)=C1O [Ascorbic acid]", 2.39),
    ("CC(=O)Oc1c(C)c(C)c2c(c1C)CCC(C)(CCC[C@H](C)CCC[C@H](C)CCCC(C)C)O2 (stereo partly shown) [Vitamin E acetate]", 1.01),
    ("Cc1cc(C(C)(C)C)c(O)c(C(C)(C)C)c1 [Butylated hydroxytoluene (BHT), Butylated hydroxytoluene]", 1.02),
]

* * *

Experiment: Stability Study 2 conducted at 5° C.: storage stability of a formulation comprising the disodium salt, HPLC
Format: physicochemical
Conditions: 18 months at 5° C.
# weight percentage of the component, 18 months per entry
assay.endpoint: weight percentage of the component, 18 months (weight percentage)

# compound, observed.measurement
rows = [
    ("CC(C)=CCC/C(C)=C/CC/C(C)=C/CSC[C@H](NC(=O)CCC(=O)O)C(=O)O", 3.10),
    ("CCCOC(=O)c1ccc(O)cc1", 0.033),
    ("COC(=O)c1ccc(O)cc1", 0.17),
    ("CC(C)=CCC/C(C)=C/CC/C(C)=C/C[S+]([O-])C[C@H](NC(=O)CCC(=O)O)C(=O)O (stereo partly shown)", 0.052),
]

* * *

weight percentage of the component, 2 months overview
Experiment: Stability Study 2 conducted at 5° C.: storage stability of a formulation comprising the disodium salt, HPLC
Assay type: physicochemical
Conditions: 2 months at 5° C.
assay.endpoint: weight percentage of the component, 2 months

# molecule, observed.measurement
records = [
    ("COC(=O)c1ccc(O)cc1", "0.17 weight percentage"),
    ("CCCOC(=O)c1ccc(O)cc1", "0.032 weight percentage"),
    ("CC(C)=CCC/C(C)=C/CC/C(C)=C/CSC[C@H](NC(=O)CCC(=O)O)C(=O)O", "3.00 weight percentage"),
    ("CC(C)=CCC/C(C)=C/CC/C(C)=C/C[S+]([O-])C[C@H](NC(=O)CCC(=O)O)C(=O)O (stereo partly shown)", "0.076 weight percentage"),
]

* * *

Test: Screening Study (Example 3): sulfoxide formed in API solution with each agent, HPLC
Assay type: physicochemical
Conditions: 24 hours exposed to air at room temperature, not protected from light
Entries annotated with measured (% area sulfoxide for each agent/% area sulfoxide in Blank)
assay.endpoint: (% area sulfoxide for each agent/% area sulfoxide in Blank)

# compound, observed.measurement
measured = [
    ("Cc1cc(C(C)(C)C)c(O)c(C(C)(C)C)c1 [Butylated hydroxytoluene (BHT), Butylated hydroxytoluene]", 0.97),
    ("O=S([O-])CO.[Na+] [sodium hydroxymethylsulfinate]", 1.37),
    ("O=S([O-])([O-])=S.[Na+].[Na+] [Sodium thiosulfate]", 0.92),
]

* * *

Assay: Stability Study 2 conducted at 5° C.: storage stability of a formulation comprising the disodium salt, HPLC
Format: physicochemical
Details: 6 months at 5° C.
assay.endpoint: weight percentage of the component, 6 months (weight percentage)

# molecule, observed.measurement
records = [
    ("COC(=O)c1ccc(O)cc1", 0.18),
    ("CC(C)=CCC/C(C)=C/CC/C(C)=C/C[S+]([O-])C[C@H](NC(=O)CCC(=O)O)C(=O)O (stereo partly shown)", 0.048),
    ("CCCOC(=O)c1ccc(O)cc1", 0.032),
    ("CC(C)=CCC/C(C)=C/CC/C(C)=C/CSC[C@H](NC(=O)CCC(=O)O)C(=O)O", 3.04),
]

* * *

Assay: Screening Study (Example 5): sulfoxide formed in API solution with each agent, HPLC
Assay type: physicochemical
Details: Control: no agent, stored at 5° C. and protected from light
Catalogue of % area sulfoxide relative to % area Control values
assay.endpoint: % area sulfoxide relative to % area Control

# compound, observed.measurement
data = [
    ("Cc1cc(C(C)(C)C)c(O)c(C(C)(C)C)c1 [Butylated hydroxytoluene (BHT), Butylated hydroxytoluene]", 0.227),
    ("CC(=O)Oc1c(C)c(C)c2c(c1C)CCC(C)(CCC[C@H](C)CCC[C@H](C)CCCC(C)C)O2 (some centres unmarked) [Vitamin E acetate]", 0.208),
    ("CC(C)(C)c1cc(O)ccc1O [Tert-butylhydroquinone (TBHQ), Tert-butylhydroquinone]", 7.587),
    ("O=C1O[C@H]([C@@H](O)CO)C(O)=C1O [Ascorbic acid]", 1.812),
    ("O=S([O-])([O-])=S.[Na+].[Na+] [Sodium thiosulfate]", 0.158),
]

* * *

Experiment: Stability Study 2 conducted at 5° C.: storage stability of a formulation comprising the disodium salt, HPLC
Assay type: physicochemical
Conditions: initial; storage at 5° C.
Items are presented alongside their recorded weight percentage of the component, Initial.
assay.endpoint: weight percentage of the component, Initial (weight percentage)

# compound, observed.measurement
rows = [
    ("COC(=O)c1ccc(O)cc1", 0.17),
    ("CC(C)=CCC/C(C)=C/CC/C(C)=C/C[S+]([O-])C[C@H](NC(=O)CCC(=O)O)C(=O)O (stereo partly shown)", 0.037),
    ("CCCOC(=O)c1ccc(O)cc1", 0.034),
    ("CC(C)=CCC/C(C)=C/CC/C(C)=C/CSC[C@H](NC(=O)CCC(=O)O)C(=O)O", 3.09),
]

* * *

The following compounds are listed with their measured weight percentage of the component, 9 months values.
Experiment: Stability Study 2 conducted at 5° C.: storage stability of a formulation comprising the disodium salt, HPLC
Type: physicochemical
Conditions: 9 months at 5° C.
assay.endpoint: weight percentage of the component, 9 months (weight percentage)

# compound, observed.measurement
rows = [
    ("COC(=O)c1ccc(O)cc1 [Methylparaben]", 0.17),
    ("CC(C)=CCC/C(C)=C/CC/C(C)=C/C[S+]([O-])C[C@H](NC(=O)CCC(=O)O)C(=O)O (stereo partly shown)", 0.049),
    ("CCCOC(=O)c1ccc(O)cc1 [Propylparaben]", 0.033),
    ("CC(C)=CCC/C(C)=C/CC/C(C)=C/CSC[C@H](NC(=O)CCC(=O)O)C(=O)O", 3.03),
]
